# System: DIV30
# ASSAY_PROTOCOL: qHTS profiling for inhibitors of Plasmodium falciparum proliferation (AID 504749); further: nearly all actives have a fitted effect of over 60% in size
# CONDITION_SUMMARY: P. falciparum in erythrocytes, SYBR Green DNA, 72 h; series mostly up to 28.7 µM
# Description: NIH National Institute of Allergy and Infectious Diseases [NIAID] NIH Chemical Genomics Center [NCGC] […] Because mature erythrocytes lack DNA, only Plasmodium-derived DNA is detected. NCGC Assay Protocol Summary: The SYBR Green viability assay was adapted from a method described previously (Plouffe et al., 2008). […] The following morning, fluorescence intensity at 485(14) nm excitation and 535(25) nm emission wavelengths was measured on an EnVision (Perkin Elmer) plate reader. […]
Records with an inconclusive call do not appear. Active and inactive are the calls of the source. The call rests on the fitted dose curve; in most records, active means well fitted inhibition curve with a large enough effect; inconclusive means small, poorly fitted or top-dose-only effect; inactive means flat fitted curve, though single readings scatter.
Labels: t for active, f for inactive

[
  {
    "MOLECULE": "Nc1nc2c(ncn2COCCO)c(=O)[nH]1",
    "CLASS_NAME": "f"
  },
  {
    "MOLECULE": "Nc1ccc(S(=O)(=O)Nc2ccnn2-c2ccccc2)cc1",
    "CLASS_NAME": "f"
  },
  {
    "MOLECULE": "NC[C@H](O)c1ccc(O)c(O)c1",
    "CLASS_NAME": "f"
  },
  {
    "MOLECULE": "Oc1ccc(C2CNCCc3c2cc(O)c(O)c3Cl)cc1 (stereo not given)",
    "CLASS_NAME": "f"
  },
  {
    "MOLECULE": "CCOC(=O)C1=C[C@]2(CC)CCCN3CCc4c(n1c1ccccc41)[C@@H]32",
    "CLASS_NAME": "t"
  },
  {
    "MOLECULE": "NCCCC(N)(C(=O)O)C(F)F (stereo not given)",
    "CLASS_NAME": "f"
  },
  {
    "MOLECULE": "O=c1n(CCCN2CCN(c3cccc(Cl)c3)CC2)nc2ccccn12",
    "CLASS_NAME": "f"
  },
  {
    "MOLECULE": "CCOC(=O)N1CCC(=C2c3ccc(Cl)cc3CCc3cccnc32)CC1",
    "CLASS_NAME": "t"
  },
  {
    "MOLECULE": "N=c1nc(N2CCCCC2)cc(N)n1O",
    "CLASS_NAME": "f"
  },
  {
    "MOLECULE": "Cc1[nH]c(=O)c(C#N)cc1-c1ccc2nccn2c1",
    "CLASS_NAME": "f"
  },
  {
    "MOLECULE": "Cc1cn[nH]c1",
    "CLASS_NAME": "f"
  },
  {
    "MOLECULE": "N[C@@H]1CONC1=O",
    "CLASS_NAME": "f"
  },
  {
    "MOLECULE": "NS(=O)(=O)c1cc2c(cc1Cl)NC=NS2(=O)=O",
    "CLASS_NAME": "f"
  },
  {
    "MOLECULE": "CC(C)NCC(O)COc1ccc(COCCOC(C)C)cc1 (stereo not given)",
    "CLASS_NAME": "f"
  },
  {
    "MOLECULE": "CC(C[N+](C)(C)C)OC(N)=O (stereo not given)",
    "CLASS_NAME": "f"
  }
]
